Test system: Enterococcus faecium
experiment-summary: Antimicrobial activity against Enterococcus faecium ATCC 19434 by broth dilution method
Type: functional
Listing of recorded MIC by entry.
endpoint: MIC (µg/mL)

INSERT INTO results (substance_smiles, subject_of_test, value_units, value_operator, value_reported) VALUES
  ('CCCCOc1ccc2cc(S(=O)(=O)Nc3cc(C(=O)O)ccc3C(=O)O)ccc2c1', 'Enterococcus faecium', 'µg/mL', '>', 512),
  ('N#Cc1ccc(COc2ccc3cc(S(=O)(=O)N[C@H]4CCCC[C@H]4C(=O)O)ccc3c2)c(F)c1', 'Enterococcus faecium', 'µg/mL', '=', 256),
  ('N#Cc1ccc(COc2ccc3cc(S(=O)(=O)N[C@@H]4CCCC[C@H]4C(=O)O)ccc3c2)c(F)c1', 'Enterococcus faecium', 'µg/mL', '>', 512),
  ('CCCCOc1ccc2cc(S(=O)(=O)Nc3ccc(C(=O)O)cc3C(=O)O)ccc2c1', 'Enterococcus faecium', 'µg/mL', '>', 512),
  ('CCCCOc1ccc2cc(S(=O)(=O)Nc3ccc(CC(=O)O)cc3)ccc2c1', 'Enterococcus faecium', 'µg/mL', '=', 512);

* * *

Test system: Staphylococcus aureus
experiment-summary: Antimicrobial activity against Staphylococcus aureus ATCC 25923 by broth dilution method
Format: functional
Examples of molecules with documented MIC follow.
endpoint: MIC

INSERT INTO assay_data (substance_smiles, value_reported) VALUES
  ('N#Cc1ccc(COc2ccc3cc(S(=O)(=O)Nc4ccc(O)cc4C(=O)O)ccc3c2)c(F)c1', '> 512 µg/mL'),
  ('CCCCOc1ccc2cc(S(=O)(=O)Nc3cc(C(=O)O)cc(C(=O)O)c3)ccc2c1', '> 512 µg/mL'),
  ('CCCCOc1ccc2cc(S(=O)(=O)Nc3ccc(O)cc3C(=O)O)ccc2c1', '> 512 µg/mL'),
  ('CCCCOc1ccc2cc(S(=O)(=O)Nc3ccc(C(=O)O)cc3C(=O)O)ccc2c1', '> 512 µg/mL'),
  ('CCCCOc1ccc2cc(S(=O)(=O)N[C@H]3CCCC[C@H]3C(=O)O)ccc2c1', '256 µg/mL'),
  ('N#Cc1ccc(COc2ccc3cc(S(=O)(=O)Nc4cc(C(=O)O)ccc4C(=O)O)ccc3c2)c(F)c1', '> 512 µg/mL'),
  ('CCCCOc1ccc2cc(S(=O)(=O)N[C@@H]3CCCC[C@H]3C(=O)O)ccc2c1', '256 µg/mL'),
  ('N#Cc1ccc(COc2ccc3cc(S(=O)(=O)N[C@H]4CCCC[C@H]4C(=O)O)ccc3c2)c(F)c1', '256 µg/mL');

* * *

System: Streptococcus pneumoniae
experiment-summary: Antimicrobial activity against Streptococcus pneumoniae D39 by broth dilution method
Assay type: functional
endpoint: MIC

INSERT INTO assay_data (compound, value_reported) VALUES
  ('CCCCOc1ccc2cc(S(=O)(=O)N[C@@H]3CCCC[C@H]3C(=O)O)ccc2c1', '64 µg/mL'),
  ('N#Cc1ccc(COc2ccc3cc(S(=O)(=O)N[C@@H]4CCCC[C@H]4C(=O)O)ccc3c2)c(F)c1', '> 512 µg/mL'),
  ('N#Cc1ccc(COc2ccc3cc(S(=O)(=O)Nc4cc(C(=O)O)cc(C(=O)O)c4)ccc3c2)c(F)c1', '> 512 µg/mL'),
  ('CCCCOc1ccc2cc(S(=O)(=O)Nc3cc(C(=O)O)ccc3C(=O)O)ccc2c1', '> 512 µg/mL'),
  ('N#Cc1ccc(COc2ccc3cc(S(=O)(=O)Nc4ccc(O)cc4C(=O)O)ccc3c2)c(F)c1', '> 512 µg/mL'),
  ('CCCCOc1ccc2cc(S(=O)(=O)Nc3ccc(CC(=O)O)cc3)ccc2c1', '> 512 µg/mL'),
  ('CCCCOc1ccc2cc(S(=O)(=O)N[C@H]3CCCC[C@H]3C(=O)O)ccc2c1', '64 µg/mL'),
  ('N#Cc1ccc(COc2ccc3cc(S(=O)(=O)Nc4cc(C(=O)O)ccc4C(=O)O)ccc3c2)c(F)c1', '> 512 µg/mL'),
  ('N#Cc1ccc(COc2ccc3cc(S(=O)(=O)N[C@H]4CCCC[C@H]4C(=O)O)ccc3c2)c(F)c1', '> 512 µg/mL'),
  ('N#Cc1ccc(COc2ccc3cc(S(=O)(=O)Nc4ccc(C(=O)O)cc4C(=O)O)ccc3c2)c(F)c1', '> 512 µg/mL'),
  ('CCCCOc1ccc2cc(S(=O)(=O)Nc3cc(C(=O)O)cc(C(=O)O)c3)ccc2c1', '> 512 µg/mL'),
  ('N#Cc1ccc(COc2ccc3cc(S(=O)(=O)Nc4ccc(CC(=O)O)cc4)ccc3c2)c(F)c1', '64 µg/mL'),
  ('CCCCOc1ccc2cc(S(=O)(=O)Nc3ccc(C(=O)O)cc3C(=O)O)ccc2c1', '> 512 µg/mL'),
  ('CCCCOc1ccc2cc(S(=O)(=O)Nc3ccc(O)cc3C(=O)O)ccc2c1', '64 µg/mL'),
  ('CCCCOc1ccc2cc(S(=O)(=O)NC3CCC(C(=O)O)CC3C(=O)O)ccc2c1 (racemic)', '64 µg/mL'),
  ('N#Cc1ccc(COc2ccc3cc(S(=O)(=O)NC4CCC(C(=O)O)CC4C(=O)O)ccc3c2)c(F)c1 (racemic)', '> 512 µg/mL');

* * *

Test system: Enterococcus faecalis
experiment-summary: Antimicrobial activity against Enterococcus faecalis ATCC 19433 by broth dilution method
Type: functional
endpoint: MIC

INSERT INTO assay_data (compound, endpoint, value_reported) VALUES
  ('N#Cc1ccc(COc2ccc3cc(S(=O)(=O)Nc4ccc(O)cc4C(=O)O)ccc3c2)c(F)c1', 'MIC', '> 512 µg/mL'),
  ('N#Cc1ccc(COc2ccc3cc(S(=O)(=O)NC4CCC(C(=O)O)CC4C(=O)O)ccc3c2)c(F)c1 (racemic)', 'MIC', '> 512 µg/mL'),
  ('CCCCOc1ccc2cc(S(=O)(=O)Nc3ccc(CC(=O)O)cc3)ccc2c1', 'MIC', '512 µg/mL'),
  ('CCCCOc1ccc2cc(S(=O)(=O)Nc3cc(C(=O)O)cc(C(=O)O)c3)ccc2c1', 'MIC', '> 512 µg/mL'),
  ('CCCCOc1ccc2cc(S(=O)(=O)Nc3cc(C(=O)O)ccc3C(=O)O)ccc2c1', 'MIC', '> 512 µg/mL'),
  ('CCCCOc1ccc2cc(S(=O)(=O)NC3CCC(C(=O)O)CC3C(=O)O)ccc2c1 (racemic)', 'MIC', '128 µg/mL'),
  ('CCCCOc1ccc2cc(S(=O)(=O)Nc3ccc(O)cc3C(=O)O)ccc2c1', 'MIC', '> 512 µg/mL'),
  ('N#Cc1ccc(COc2ccc3cc(S(=O)(=O)N[C@H]4CCCC[C@H]4C(=O)O)ccc3c2)c(F)c1', 'MIC', '> 512 µg/mL'),
  ('N#Cc1ccc(COc2ccc3cc(S(=O)(=O)Nc4cc(C(=O)O)ccc4C(=O)O)ccc3c2)c(F)c1', 'MIC', '> 512 µg/mL'),
  ('N#Cc1ccc(COc2ccc3cc(S(=O)(=O)N[C@@H]4CCCC[C@H]4C(=O)O)ccc3c2)c(F)c1', 'MIC', '> 512 µg/mL'),
  ('N#Cc1ccc(COc2ccc3cc(S(=O)(=O)Nc4cc(C(=O)O)cc(C(=O)O)c4)ccc3c2)c(F)c1', 'MIC', '> 512 µg/mL'),
  ('N#Cc1ccc(COc2ccc3cc(S(=O)(=O)Nc4ccc(C(=O)O)cc4C(=O)O)ccc3c2)c(F)c1', 'MIC', '> 512 µg/mL'),
  ('N#Cc1ccc(COc2ccc3cc(S(=O)(=O)Nc4ccc(CC(=O)O)cc4)ccc3c2)c(F)c1', 'MIC', '> 512 µg/mL'),
  ('CCCCOc1ccc2cc(S(=O)(=O)Nc3ccc(C(=O)O)cc3C(=O)O)ccc2c1', 'MIC', '> 512 µg/mL'),
  ('CCCCOc1ccc2cc(S(=O)(=O)N[C@H]3CCCC[C@H]3C(=O)O)ccc2c1', 'MIC', '512 µg/mL'),
  ('CCCCOc1ccc2cc(S(=O)(=O)N[C@@H]3CCCC[C@H]3C(=O)O)ccc2c1', 'MIC', '512 µg/mL');

* * *

# MIC per record follows
System: Staphylococcus aureus
experiment-summary: Antimicrobial activity against Staphylococcus aureus ATCC 25923 by broth dilution method
Type: functional
endpoint: MIC (µg/mL)

INSERT INTO assay_data (compound, endpoint, value_units, value_operator, value_reported) VALUES
  ('N#Cc1ccc(COc2ccc3cc(S(=O)(=O)Nc4ccc(C(=O)O)cc4C(=O)O)ccc3c2)c(F)c1', 'MIC', 'µg/mL', '>', 512),
  ('N#Cc1ccc(COc2ccc3cc(S(=O)(=O)Nc4ccc(CC(=O)O)cc4)ccc3c2)c(F)c1', 'MIC', 'µg/mL', '>', 512),
  ('CCCCOc1ccc2cc(S(=O)(=O)NC3CCC(C(=O)O)CC3C(=O)O)ccc2c1 (racemic)', 'MIC', 'µg/mL', '=', 128),
  ('CCCCOc1ccc2cc(S(=O)(=O)Nc3ccc(CC(=O)O)cc3)ccc2c1', 'MIC', 'µg/mL', '=', 256),
  ('N#Cc1ccc(COc2ccc3cc(S(=O)(=O)NC4CCC(C(=O)O)CC4C(=O)O)ccc3c2)c(F)c1 (racemic)', 'MIC', 'µg/mL', '>', 512);
